protocol.notes: Cytotoxicity against human NCE-G 111 cells measured after 3 days
Format: functional, cell-based
experimental.parameters: NCE-G 111, 72 h
measured.attribute: IC50

[
  {
    "line.notation": "C/C=C/Cn1cc(-c2cc(OC)c(C(=O)N3CCOCC3)cc2OC)c2cc(C)[nH]c2c1=O",
    "measured.attribute": "IC50",
    "measured": "5 µM"
  }
]

* * *

Each entry below carries its recorded pIC50.
protocol.notes: Cytotoxicity against human KMS-21BM cells measured after 8 days
Format: functional, cell-based
experimental.parameters: 192 h
pIC50: −log10 of the molar value.

[
  {
    "line.notation": "C/C=C/Cn1cc(-c2ccc(C(=O)N3CCOCC3)cc2)c2cc[nH]c2c1=O",
    "pIC50": 4.83
  },
  {
    "line.notation": "C/C=C/Cn1cc(-c2ccc(C(C)(C)O)cc2OC)c2cc[nH]c2c1=O",
    "pIC50": 4.70
  },
  {
    "line.notation": "C/C=C/Cn1cc(-c2cc(OC)c(C(=O)N3CCOCC3)cc2OC)c2cc(C)[nH]c2c1=O",
    "pIC50": 5.70
  }
]

* * *

Test system: HEC-1B cell line
protocol.notes: Cytotoxicity against human HEC-1B cell line measured after 8 days
Assay type: functional, cell-based
experimental.parameters: 192 h
pIC50: −log10 of the molar value.
Each entry below carries its recorded pIC50.
measured.attribute: pIC50

[
  {
    "line.notation": "C/C=C/Cn1cc(-c2ccc(C(=O)N3CCOCC3)cc2)c2cc[nH]c2c1=O",
    "measured.attribute": "pIC50",
    "measured": 4.98
  },
  {
    "line.notation": "C/C=C/Cn1cc(-c2ccc(C(C)(C)O)cc2OC)c2cc[nH]c2c1=O",
    "measured.attribute": "pIC50",
    "measured": 4.70
  }
]

* * *

Each entry below carries its recorded pIC50.
System: Caco-2
protocol.notes: Cytotoxicity against human Caco-2 cells measured after 8 days
Assay type: functional, cell-based
experimental.parameters: Caco-2, 192 h
pIC50: −log10 of the molar value.

[
  {
    "line.notation": "C/C=C/Cn1cc(-c2ccc(C(C)(C)O)cc2OC)c2cc[nH]c2c1=O",
    "pIC50": 4.70
  },
  {
    "line.notation": "C/C=C/Cn1cc(-c2ccc(C(=O)N3CCOCC3)cc2)c2cc[nH]c2c1=O",
    "pIC50": 4.70
  },
  {
    "line.notation": "C/C=C/Cn1cc(-c2cc(OC)c(C(=O)N3CCOCC3)cc2OC)c2cc(C)[nH]c2c1=O",
    "pIC50": 5.70
  }
]

* * *

Each entry below carries its recorded pIC50.
Tested on: S-117
protocol.notes: Cytotoxicity against human S-117 cells measured after 8 days
Type: functional, cell-based
experimental.parameters: S-117, 192 h
pIC50: −log10 of the molar value.

[
  {
    "line.notation": "C/C=C/Cn1cc(-c2ccc(C(=O)N3CCOCC3)cc2)c2cc[nH]c2c1=O",
    "pIC50": 4.70
  },
  {
    "line.notation": "C/C=C/Cn1cc(-c2ccc(C(C)(C)O)cc2OC)c2cc[nH]c2c1=O",
    "pIC50": 4.70
  }
]

* * *

System: HOP-92
protocol.notes: Cytotoxicity against human HOP-92 cells measured after 8 days
Format: functional, cell-based
experimental.parameters: HOP-92, 192 h

[
  {
    "line.notation": "C/C=C/Cn1cc(-c2ccc(C(C)(C)O)cc2OC)c2cc[nH]c2c1=O",
    "IC50, µM": 20
  },
  {
    "line.notation": "C/C=C/Cn1cc(-c2ccc(C(=O)N3CCOCC3)cc2)c2cc[nH]c2c1=O",
    "IC50, µM": 20
  },
  {
    "line.notation": "C/C=C/Cn1cc(-c2cc(OC)c(C(=O)N3CCOCC3)cc2OC)c2cc(C)[nH]c2c1=O",
    "IC50, µM": 2
  }
]
